Below, each of the compounds is paired with its reported inhibition at 1 µM value.
- TARGET UNDER TEST: hNET (Homo sapiens, UniProt P23975)
- Construct: expressed in transfected cells
- Sequence (P23975 whole entry): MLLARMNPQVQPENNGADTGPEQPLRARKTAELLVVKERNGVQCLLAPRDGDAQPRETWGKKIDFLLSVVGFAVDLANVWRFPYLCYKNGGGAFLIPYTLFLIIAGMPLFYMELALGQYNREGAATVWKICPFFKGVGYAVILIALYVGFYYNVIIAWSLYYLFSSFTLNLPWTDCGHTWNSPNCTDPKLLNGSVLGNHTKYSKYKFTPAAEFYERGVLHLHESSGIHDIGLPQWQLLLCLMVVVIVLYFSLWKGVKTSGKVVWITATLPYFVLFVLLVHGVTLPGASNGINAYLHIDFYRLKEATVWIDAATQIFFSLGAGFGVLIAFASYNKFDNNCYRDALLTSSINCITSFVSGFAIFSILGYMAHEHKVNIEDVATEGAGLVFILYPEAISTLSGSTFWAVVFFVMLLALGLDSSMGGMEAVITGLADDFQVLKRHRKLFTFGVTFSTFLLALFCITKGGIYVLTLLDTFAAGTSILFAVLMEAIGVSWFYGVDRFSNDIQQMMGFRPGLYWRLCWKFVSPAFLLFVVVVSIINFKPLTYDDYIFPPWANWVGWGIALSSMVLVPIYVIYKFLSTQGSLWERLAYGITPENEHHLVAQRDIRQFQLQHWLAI
- PROTOCOL: Norepinephrine (NE) uptake assay in MDCK-Net6 cells stably transfected with human hNET
- Type: cell-based
- PARTICULARS: MDCK-Net6, read-out: % Inhibition @ 1 μM (hNET)
Structures can show the parent of a compound that is named as a salt.

COMPOUND	inhibition at 1 µM [%]
CNC[C@@H](O)[C@H](c1ccccc1)n1ccc2cc(F)ccc21 [Example 75, hydrochloride]	88.4
CNC[C@@H](O)[C@H](c1ccccc1)n1c(=O)n(C(C)C)c2ccccc21 [Example 203, hydrochloride]	98.9
CNC[C@@H](O)[C@H](c1cccc(C(F)(F)F)c1)n1ccc2ccccc21 [Example 136, hydrochloride]	97
CNCC(O)[C@@H](c1ccccc1)n1ccc2ccccc21 (stereo in doubt) [Example 22, hydrochloride]	83.8
CNC[C@@H](O)[C@H](c1ccccc1F)n1ccc2ccccc21 [Example 50, hydrochloride]	91.8
CNC[C@@H](O)[C@H](c1cccc(F)c1)n1ccc2cccc(Cl)c21 [Example 149, hydrochloride]	100
CCn1c(=O)n([C@@H](c2cccc(F)c2)[C@H](O)CNC)c2c(F)cccc21 [Example 209, hydrochloride]	99.3
CNC[C@@H](O)[C@H](c1ccccc1)n1ccc2cc(OC)ccc21 (racemic) [Example 80, hydrochloride]	83.5
Cc1cn([C@H](c2ccccc2)[C@@H](O)CN)c2ccccc12 (racemic) [Example 24, hydrochloride]	57.2
CNC[C@@H](O)[C@H](c1cccc(Br)c1)n1ccc2ccccc21 [Example 43, hydrochloride]	99
CNC[C@@H](O)[C@H](c1ccccc1)n1c(=O)n(C(C)(C)C)c2ccccc21 [Example 192, hydrochloride]	54.6
CNC[C@@H](O)[C@H](c1ccc(C)cc1)n1ccc2ccccc21 [Example 59, hydrochloride]	93.2
CNC[C@@H](O)[C@H](c1ccccc1C)n1ccc2ccccc21 (single isomer, unassigned) [Example 53, hydrochloride]	57.4
CCCn1c(=O)n([C@@H](c2ccccc2)[C@H](O)CNC)c2ccccc21 [Example 193, hydrochloride]	98.4
CNC[C@H](O)[C@@H](c1ccccc1)n1ccc2cc(F)ccc21 (racemic) [Example 20, hydrochloride]	85
CNC[C@@H](O)[C@H](c1cccc(OC)c1)n1ccc2ccccc21 [Example 69, hydrochloride]	87.5
CCn1c(=O)n([C@@H](c2ccccc2)[C@H](O)CNC)c2ccccc21 [Example 200, hydrochloride]	97.9
CNC[C@@H](O)[C@H](c1cccc(F)c1)n1ccc2cc(Br)ccc21 [Example 127, hydrochloride]	95.7
CNC[C@@H](O)[C@H](c1cccc(F)c1)n1ccc2cc(C)ccc21 [Example 92, hydrochloride]	85.8
CNC[C@@H](O)[C@H](c1cccc(F)c1)n1ccc2c(Cl)cccc21 [Example 150, hydrochloride]	98.3
CNC[C@@H](O)[C@H](c1cccc(F)c1)n1ccc2cc(Cl)ccc21 [Example 153, hydrochloride]	97.4
Cc1cn([C@@H](c2ccccc2)[C@H](O)CN)c2ccccc12 [Example 178, hydrochloride]	69.2
CNC[C@H](O)[C@@H](c1ccccc1)n1ccc2ccccc21 (racemic) [Example 11, hydrochloride]	94.5
CNC[C@H](O)[C@@H](c1ccccc1)n1ccc2cc(Cl)ccc21 (racemic) [Example 26, hydrochloride]	54
CNC[C@@H](O)[C@H](c1ccccc1)n1c(=O)n(C2CCCC2)c2ccccc21 [Example 202, hydrochloride]	92.7
CNC[C@@H](O)[C@H](c1cccc(F)c1)n1ccc2cc(F)ccc21 [Example 85, hydrochloride]	97.4
CCCn1c(=O)n([C@@H](c2ccccc2)[C@H](O)CNC)c2cc(F)ccc21 [Example 198, hydrochloride]	97.7
CNC[C@H](O)[C@@H](c1ccccc1C)n1ccc2ccccc21 (single isomer, unassigned) [Example 54, hydrochloride]	68.6
CNC[C@@H](O)[C@H](c1ccc(Cl)cc1)n1ccc2ccccc21 [Example 34, hydrochloride]	78.4
CNC[C@@H](O)[C@H](c1ccccc1)n1ccc2cc(Cl)ccc21 [Example 152, hydrochloride]	96.2

// provenance: patent US20090093469A1
